Assay: PK following bolus and 2-hr continuous SC administration of 30% LD-Tyr (Example 18)
Format: in vivo, domestic pig
Settings: female, pig, plasma, sc, analyte LD-Tyr; 30/1 % w/v; bolus volume 1.2 mL, bolus dose 360/12 mg, daily dose 660/22 mg; bolus and 2-hr continuous SC administration
Where a SMILES comes first, the peptide text is derived from it. [ ]: non-standard residue; d: D form. Dopa = N[C@@H](Cc1ccc(O)c(O)c1)C(=O)O
metric_name: AUC(0-t) (ng·h/mL)
Give the value in ng·h/mL but do not write ng·h/mL after it.

Ask | State its AUC(0-t): N[C@@H](Cc1ccc(O)c(O)c1)C(=O)N[C@@H](Cc1ccc(O)cc1)C(=O)O [LD-Tyr] (H-[Dopa]-Tyr-OH)
Reply | 1630

Origin of the recorded values: patent US20240207410A1
